# target_system: T1, human calcitonin receptor (human, UniProt P30988 25-474)
# T1 sequence (looked up): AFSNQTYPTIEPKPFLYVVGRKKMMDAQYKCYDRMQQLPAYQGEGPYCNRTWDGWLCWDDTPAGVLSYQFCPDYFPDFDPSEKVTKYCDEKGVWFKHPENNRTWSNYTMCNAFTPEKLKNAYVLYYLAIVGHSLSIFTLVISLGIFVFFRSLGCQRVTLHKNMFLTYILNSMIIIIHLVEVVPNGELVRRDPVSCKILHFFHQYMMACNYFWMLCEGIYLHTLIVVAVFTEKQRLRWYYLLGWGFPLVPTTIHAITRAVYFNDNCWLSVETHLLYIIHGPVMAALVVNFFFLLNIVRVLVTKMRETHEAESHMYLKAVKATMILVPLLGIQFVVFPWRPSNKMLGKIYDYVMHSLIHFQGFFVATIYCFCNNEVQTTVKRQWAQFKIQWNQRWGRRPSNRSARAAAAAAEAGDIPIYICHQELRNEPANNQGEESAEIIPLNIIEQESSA
# test_summary: cell-based or functional assay
Numbered stars: 1 amine (or outer) side, 2 acyl side, 3 side chain; on linkers, the order of the positions; unused ones are H or OH. Bridge positions count the residues as written; N and C are the ends. Side chains are listed from the residue outwards. Ends that are not written are not given here. * marks the point of attachment. C20 diacid = O=C(O)CCCCCCCCCCCCCCCCCCC(=O)*; γGlu = O=C(O)[C@H](CCC(=O)[*:2])N[*:1]
Give Ratio hCT/hAmylin funct. (hCTR EC50 against hAmylin-R EC50) for every item shown.

binder="K([γGlu-C20 diacid])CNTATCATQRLAEFLRHSSPNFGAIPSSTNVGSHTY-NH2 (disulfide 2-7 (inferred), Synthetic acylated analogue of human amylin)" observed_result=13.1
binder="K([γGlu-γGlu-C20 diacid])CNTATCATQRLAEFLRHSSNNPGAILSSTNVGPETY-NH2 (disulfide 2-7 (inferred), Synthetic acylated analogue of human amylin)" observed_result=17.3
binder="K([γGlu-γGlu-C20 diacid])CNTATCATQRLAEFLRHSSPNFGAIPSSTNVGPNTF-NH2 (disulfide 2-7 (inferred), Synthetic acylated analogue of human amylin)" observed_result=9.9

Alright, here's another binder for you.
Input line: Value lookup for Ratio hCT/hAmylin funct. (hCTR EC50 against hAmylin-R EC50); key = K([γGlu-γGlu-C20 diacid])CNTATCATQRLAEFLRHSSPNFGAIPSSTNVGPETP-NH2 (disulfide 2-7 (inferred), Synthetic acylated analogue of human amylin)
Output line: 0.8
